Target: T1, human TREM2 truncated stalk peptide (aa 149-163) (human, also: biotinylated (site not given here))
T1 construct: also called Human TREM2 peptide (aa 149-163); truncated stalk peptide containing the ADAM10/17 cleavage site
T1 peptide: SFEDAHVEHSISRSL
Assay: ELISA on biotinylated peptide captured by streptavidin; A450 normalised to isotype control
No end group written: not given here.
measurement.kind: fold over background (A450)

Param item = CL0020139 (antibody, V domains shown, also called Clone CL0020139) VH: EVQLQQSGPELVKPGASVKMSCKAPGYSFTSYLMNWVKQKPGQGLEWIGYINPYSAGSNYNEKFKDKATLTSDKSSSTAYMELRSLTSEDSAVYFCARSSYRYGFDYWGQGTTLTVSS VL: DIQMTQSSSSFSVSLGDRVTITCKASEDIYNRLAWYQQKPGNAPRLLISGATSLETGVPSRFSGSGSGKDYTLSITSLQTEDVATYSCQQYWSTPWTFGGGTKLEIK ; retrieve measured fold over background (A450).
1.3 fold
